The reported measurements were obtained from ChEMBL document CHEMBL1201862.

System: CAKI-1
Test: NCI tumour cell line growth inhibition, 48 h
Activity calls are given as the source filed them. Rule as the data show it: active = GI50 up to about 1.1 µM and inactive = higher.
Your reply should match one of these outcome classes. active, inactive

Example cases with answers are listed next.
COMPOUND	CATEGORY
COc1ccccc1C[C@@H]1OC2(C=CC(=O)CC2SC(=O)c2ccccc2)O[C@H]1Cc1ccccc1OC (some centres undefined)	inactive
CN(C)CCNC(=O)c1ccc(NCCCN(C)CCCNc2ccc(C(=O)NCCN(C)C)c3nc4ccc([N+](=O)[O-])cc4c(O)c23)c2c(O)c3cc([N+](=O)[O-])ccc3nc12	active
Cc1csc2c(P(=O)(OC(C)C)OC(C)C)c(-c3ccccc3)cn12	inactive
Cc1c(C(=O)CC(=O)C(=O)Nc2ccc(Cl)cc2)[n+]([O-])c2ccccc2[n+]1[O-]	inactive
COC(=O)c1cc(Br)c(C(=O)C(Cl)(Cl)Cl)[nH]1	inactive
CCCC(O)c1cn(C(NC(=O)c2ccccc2)P(=O)(OCC)OCC)nn1 (centres undefined)	inactive
O=c1c(C(c2cccnc2)c2c(O)oc3cc(O)ccc3c2=O)c(O)oc2cc(O)ccc12	inactive
COCC1OC(OC2OCC3OC4(OCC(O)(C(C)OC)C5OCOC54)OC3C2OC)C(OC)C(O)C1OC1OC(C)C(OC)C(OC2OC(C)C3OC4(CC(O)C(OC5CC(OC6CC(C)([N+](=O)[O-])C(OC)C(C)O6)C(OC(=O)c6c(C)c(Cl)c(O)c(Cl)c6OC)C(C)O5)C(C)O4)OC3(C)C2O)C1O (centres undefined)	inactive
COc1ccc(/N=N/C(=N\c2ccccc2)c2ccc(N(CCC#N)CCC#N)cc2)cc1	inactive
Nc1nc2c(ncn2CCOC(c2ccccc2)P(=O)(O)O)c(=O)[nH]1 (centres undefined)	inactive

Please share the test call associated with CO[C@]12C[C@H](CNC(=O)c3cc(Br)c(Br)[nH]3)O[C@H]1NC(=O)N2 .
inactive

What do you get for N/C(=N\O)N/N=C/c1cc(Br)cc(Br)c1O ?
active

Same lookup for O=C1c2ccccc2-c2ccccc2C(=O)C1(Br)Br , please.
inactive

Continue with C/C(CC(O)(C(F)(F)F)C(F)(F)F)=N\NC(N)=S
inactive

Okay, and S=C1CSc2c(ccc3ccccc23)N1 ?
inactive

----------
Tested on: A498
Test: NCI tumour cell line growth inhibition, 48 h
Calls of active or inactive are those of the source. Rule as the data show it: active = GI50 up to about 1.1 µM and inactive = higher.
READOUT LABEL: GI50

> print(dat)
                                   molecule            obs.value
1       CCOP(=O)(OCC)/C(C#N)=C/c1cccn1N(C)C  > 100 µM (inactive)
2  CN1C(=O)C2C(C1=O)C1(O)c3ccccc3C2(N)c2ccccc21 (centres undefined)   35.2 µM (inactive)
3         O=C(O)CCCNS(=O)(=O)c1ccc2ccccc2c1  > 100 µM (inactive)
4  O=[N+]([O-])c1cccc2c1[nH]c1c(-c3ccccc3)nccc12   3.72 µM (inactive)
5  O=C(c1cccc(C(=O)c2ccc3c4c(cccc24)C(=O)N(c2ccccc2)C3=O)c1)c1ccc2c3c(cccc13)C(=O)N(c1ccccc1)C2=O   17.3 µM (inactive)

// GI50 lookup, key: COc1ccc(/N=N/C(=N\c2ccccc2)c2ccc(N(CCC#N)CCC#N)cc2)cc1
67.6 µM (inactive)

Continue with CCN(CC)CCNC(=O)c1cc2cc(NC(=O)c3cc4cc(NC(=O)c5cc6cc([N+](=O)[O-])ccc6[nH]5)ccc4[nH]3)ccc2[nH]1
> 100 µM (inactive)

Okay, and ClCCN(CCCl)c1ccc(CNCCCNCc2ccc(N(CCCl)CCCl)cc2)cc1 ?
7.24 µM (inactive)

Next entry: CCOc1ccc(N/C(=C(/C(Cl)=C(/Cl)N(CC)CC)[N+](=O)[O-])n2nnc3ccccc32)cc1
15 µM (inactive)

----------
Below, each of the compounds is paired with its reported GI50 value.
Test system: MDA-MB-231
Experiment: NCI tumour cell line growth inhibition, 48 h
Activity calls are given as the source filed them. Rule as the data show it: active = GI50 up to about 1.1 µM and inactive = higher.

> print(dat)
                                   compound  readout.label          obs.value
1  CC1=C(O)C(=O)C=C2C1=CC=C1[C@@]2(C)CC[C@@]2(C)[C@@H]3C[C@](C)(C(=O)O)CC[C@]3(C)CC[C@]12C [CELASTROL]           GI50  0.021 µM (active)

Recorded GI50 for CC(C)C1OC23CCCCC2C(C#N)(C#N)C1(C#N)C(=N)O3 (stereo not drawn) with MDA-MB-231, please?
19.6 µM (inactive)

Now give it for O=c1[nH]c(=O)n(COCc2ccccc2)c2ccsc12 too.
> 100 µM (inactive)

----------
Here, each record is paired with measured GI50 data.
Tested on: NCI-H23
Test: NCI tumour cell line growth inhibition, 48 h
Activity calls are given as the source filed them. Rule as the data show it: active = GI50 up to about 1.1 µM and inactive = higher.

Some entries whose results are on file:
> print(dat)
                                   compound  tested.target            obs.value
1  COc1ccc2c(-c3csc(-c4c[nH]c5ccccc45)n3)c[nH]c2c1        NCI-H23   11.6 µM (inactive)
2  Fc1ccc(C(OCCN2CCN(CCCCl)CC2)c2ccc(F)cc2)cc1        NCI-H23   22.3 µM (inactive)
3  CC[C@@H]1NC(C(=O)OC)Cc2c1[nH]c1ccccc21 (stereo partly drawn)        NCI-H23  > 100 µM (inactive)
4  CCCCCCc1cc2cc(C(=O)Nc3ccccc3F)c(=N)oc2cc1O        NCI-H23   3.18 µM (inactive)

What value of measured GI50 is listed for O=C(O)CCCNS(=O)(=O)c1ccc2ccccc2c1 ?
> 100 µM (inactive)

Do the same for OCCCCCNc1cc(O)nc(O)n1 please
> 100 µM (inactive)

Try the compound Cc1cc(C)nc(NS(=O)(=O)c2ccc(NC(=O)c3cccc4c(Nc5ccc(S(=O)(=O)N=C(N)N)cc5)c5ccc(Cl)cc5nc34)cc2)n1
30.8 µM (inactive)

Subsequent entry: CN(C)CCC(C#N)(c1ccccc1)c1ccccc1
> 100 µM (inactive)

Next: NC(=O)c1csc(C2(O)COC(CO)C2O)n1 (stereo not drawn)
> 100 µM (inactive)

Now give it for C=CCN1C(=O)/C(=C/c2ccc(OC)cc2)N=C1SC/C=C/C too.
41.5 µM (inactive)

Quick one: Nc1ccc(C(c2ccccc2)(c2ccccc2)c2ccccc2)cc1
30.1 µM (inactive)

Would you mind doing CCN(c1ccc(Br)cc1)c1c(Br)c(=O)nc2ccccn12 as well?
> 100 µM (inactive)

What do you get for O=C1C[C@@H](c2ccccc2)NCCCCN(O)CCCN1 ?
> 100 µM (inactive)

----------
Catalogue of GI50 readings, one per entry.
System: SW-620
Assay: NCI tumour cell line growth inhibition, 48 h
Active and inactive are the calls of the source. Cut-off read from the data, not from the text of the source: active = GI50 up to about 1.1 µM and inactive = higher.

Examples with answers:
> print(dat)
                                   compound            obs.value
1      O=C(O)c1cc2ccccc2c2c1C(=O)c1ccccc1-2  > 100 µM (inactive)
2  CC(O)(CCCCCl)c1nc2ccccc2s1 (stereo unspecified)  > 100 µM (inactive)

# input compound: O=C(OC[C@H]1C[C@H]2C(=O)OCCC[C@H]2O1)c1ccccc1 ; wanted: its GI50
> 100 µM (inactive)

For C=CCN1C(=O)/C(=C/c2ccc(OC)cc2)N=C1SC/C=C/C then?
35.4 µM (inactive)

Proceed to CSc1cc(Cl)c(C)cc1S(=O)(=O)NC(=O)NNc1cccc(C(F)(F)F)n1
> 100 µM (inactive)

Same again, this time with O=C(O)CNc1ccc(Cl)c(Cl)c1
23.9 µM (inactive)

Next record, please: O=C(O[C@H](/C=C/c1ccccc1)P1(=O)N(Cc2ccccc2)[C@@H]2CCCC[C@H]2N1Cc1ccccc1)c1ccccc1
3.57 µM (inactive)

Similarly, O=C1CCCC1CC(CN1CCOCC1)Sc1nnnn1-c1ccccc1 (stereo unspecified) ?
> 100 µM (inactive)

And what about the compound O=C1C(c2ccccc2)=C(c2ccccc2)C(c2ccc(CCCCCCc3ccc(C4=C(c5ccccc5)C(=O)C(c5ccccc5)=C4c4ccccc4)cc3)cc2)=C1c1ccccc1 ?
> 100 µM (inactive)

Queued: c1cc(-c2cn3c(n2)SCC3)ccn1
> 25.2 µM (inactive)

// repeat for Cn1cnc2c(OCC3CCCCC3)nc(N)nc21 and report
> 100 µM (inactive)

What would you report for COc1cc([C@@H]2c3cc4c(cc3[C@@H](OC3OC5COC(C)OC5C(O)C3O)[C@H]3COC(=O)[C@H]23)OCO4)cc(OC)c1O (stereo partly specified) ?
6.71 µM (inactive)

# iterate: CC1(C)CC(=O)C(C(c2cccc(O)c2O)C2C(=O)CC(C)(C)CC2=O)C(=O)C1
> 100 µM (inactive)

Please give the result for COc1ccc(/C=C(\C#N)c2ccccn2)cc1OC too.
56.1 µM (inactive)

Okay, and C[C@]12CCc3nonc3C1CC[C@@H]1C2CC[C@]2(C)NC(=O)CCC12 (stereo partly specified) ?
> 100 µM (inactive)

Input CC(=O)OCC1OC(SC2=N/C(=C\c3ccc(Br)s3)C(=O)N2CN2CCOCC2)C(OC(C)=O)C(OC(C)=O)C1OC(C)=O (stereo unspecified)
14.9 µM (inactive)
